Recorded values, source patent US7776924B2.

tested on: A549 human lung carcinoma cells; assay: Cytotoxicity in oxic and anoxic wild-type A549 human lung carcinoma cells; assay type: cell-based; settings: 4 h exposure
Experimental Endpoint: WT Ratio = IC50(aerobic)/IC50(anoxic)
One number for each entry.

Record excerpt, results attached:
Substance Smiles	WT Ratio = IC50(aerobic)/IC50(anoxic)
CS(=O)(=O)OCCN(CCBr)c1cc(C(=O)NCCO)c([N+](=O)[O-])cc1[N+](=O)[O-]	5.2
CS(=O)(=O)OCCN(CCI)c1c(C(=O)NCCO)cc([N+](=O)[O-])cc1[N+](=O)[O-]	7
CS(=O)(=O)OCCN(CCBr)c1c([N+](=O)[O-])ccc(C(=O)NCCO)c1[N+](=O)[O-]	20

Input line: Item CS(=O)(=O)OCCN(CCBr)c1c(C(=O)NCCO)cc([N+](=O)[O-])cc1[N+](=O)[O-] has what recorded WT Ratio = IC50(aerobic)/IC50(anoxic)?
Output line: 26

* * *

tested on: A549 human lung carcinoma cells; experiment: Cytotoxicity in oxic and anoxic wild-type A549 human lung carcinoma cells; format: cell-based; conditions: 4 h exposure
Answer each item with its documented WT Ratio = IC50(aerobic)/IC50(anoxic).
Give bare numbers.

Record excerpt, results attached:
Compound	Experimental Endpoint	Reported
CS(=O)(=O)OCCN(CCCl)c1ccc([N+](=O)[O-])c(C(=O)NCCCO)c1[N+](=O)[O-]	WT Ratio = IC50(aerobic)/IC50(anoxic)	26
CC(O)CNC(=O)c1cc([N+](=O)[O-])cc([N+](=O)[O-])c1N(CCBr)CCOS(C)(=O)=O (stereo not shown)	WT Ratio = IC50(aerobic)/IC50(anoxic)	19
CS(=O)(=O)OCCN(CCBr)c1cc(C(=O)NCCCO)c([N+](=O)[O-])cc1[N+](=O)[O-]	WT Ratio = IC50(aerobic)/IC50(anoxic)	2.4

Now turn to the next compound.
Input line: Item CS(=O)(=O)OCCN(CCBr)c1c([N+](=O)[O-])ccc(C(=O)NCCCO)c1[N+](=O)[O-] has what recorded WT Ratio = IC50(aerobic)/IC50(anoxic)?
Output line: 30

* * *

Answer each item with its documented pIC50.
test system: SC3.2; assay: Cytotoxicity in NTR-transfected (NR+) human ovarian cell line SC3.2; assay type: cell-based; settings: SC3.2 NTR-transfected, 18 h exposure
Give bare numbers, as −log10 of the molar value.

Record excerpt, results attached:
Compound	Reported
CS(=O)(=O)OCCN(CCBr)c1c(C(N)=O)cc([N+](=O)[O-])cc1[N+](=O)[O-]	8.15
CS(=O)(=O)OCCN(CCCl)c1ccc([N+](=O)[O-])c(C(=O)NCCCO)c1[N+](=O)[O-]	5.80
CS(=O)(=O)OCCN(CCBr)c1ccc([N+](=O)[O-])c(C(=O)NCC(O)CO)c1[N+](=O)[O-] (centres unmarked)	5.74

For every item in the list below, what is its measured pIC50?
1. CS(=O)(=O)OCCN(CCCl)c1ccc([N+](=O)[O-])c(C(=O)NCC(O)CO)c1[N+](=O)[O-] (centres unmarked)
2. CS(=O)(=O)OCCN(CCBr)c1c(C(=O)NCCO)cc([N+](=O)[O-])cc1[N+](=O)[O-]
3. CS(=O)(=O)OCCN(CCBr)c1c(C(=O)NCC(O)CO)cc([N+](=O)[O-])cc1[N+](=O)[O-] (centres unmarked)

Output line:
5.18
7.40
6.72

For every item in the list below, what is its measured pIC50?
1. CS(=O)(=O)OCCN(CCI)c1cc(C(N)=O)c([N+](=O)[O-])cc1[N+](=O)[O-]
2. CS(=O)(=O)OCCN(CCBr)c1cc(C(=O)NCCO)c([N+](=O)[O-])cc1[N+](=O)[O-]
3. CS(=O)(=O)OCCN(CCBr)c1cc(C(=O)NCC(O)CO)c([N+](=O)[O-])cc1[N+](=O)[O-] (centres unmarked)
4. CS(=O)(=O)OCCN(CCCl)c1ccc([N+](=O)[O-])c(C(N)=O)c1[N+](=O)[O-]
5. CS(=O)(=O)OCCN(CCBr)c1ccc([N+](=O)[O-])c(C(=O)NCCCN2CCOCC2)c1[N+](=O)[O-]
6. CS(=O)(=O)OCCN(CCCl)c1c(C(N)=O)cc([N+](=O)[O-])cc1[N+](=O)[O-]
7. CS(=O)(=O)OCCN(CCBr)c1cc(C(N)=O)c([N+](=O)[O-])cc1[N+](=O)[O-]
8. CS(=O)(=O)OCCN(CCBr)c1c(C(=O)NCCCN2CCOCC2)cc([N+](=O)[O-])cc1[N+](=O)[O-]

Output line:
[6.48, 6.21, 5.76, 6.26, 4.96, 7.40, 6.72, 7.52]

* * *

Answer each item with its documented Ratio = IC50(NR−)/IC50(NR+) Human Ovarian.
tested on: SC3.2; assay: Cytotoxicity in NTR-transfected (NR+) human ovarian cell line SC3.2; assay type: cell-based; conditions: SKOV3 / SC3.2, 18 h exposure
Numbers only.

Record excerpt, results attached:
Substance Smiles	Reported
CS(=O)(=O)OCCN(CCCl)c1c(C(N)=O)cc([N+](=O)[O-])cc1[N+](=O)[O-]	1890
CS(=O)(=O)OCCN(CCBr)c1cc(C(=O)NCCO)c([N+](=O)[O-])cc1[N+](=O)[O-]	470
NC(=O)c1cc(N(CCCl)CCBr)c([N+](=O)[O-])cc1[N+](=O)[O-]	280

Input line: Item CS(=O)(=O)OCCN(CCBr)c1c(C(=O)NCCO)cc([N+](=O)[O-])cc1[N+](=O)[O-] has what recorded Ratio = IC50(NR−)/IC50(NR+) Human Ovarian?
Output line: 142

* * *

Answer each item with its documented pIC50.
system: SC3.2; assay: Cytotoxicity in NTR-transfected (NR+) human ovarian cell line SC3.2; format: cell-based; settings: SC3.2 NTR-transfected, 18 h exposure
Give bare numbers, as −log10 of the molar value.

Substance Smiles	Test System	Experimental Endpoint	Reported
CS(=O)(=O)OCCN(CCBr)c1c([N+](=O)[O-])ccc(C(=O)NCCCO)c1[N+](=O)[O-]	SC3.2	pIC50	6.24
CS(=O)(=O)OCCN(CCBr)c1c([N+](=O)[O-])ccc(C(N)=O)c1[N+](=O)[O-]	SC3.2	pIC50	6.68

Input line: Test system SC3.2; read-out pIC50; what value for CS(=O)(=O)OCCN(CCCl)c1ccc([N+](=O)[O-])c(C(=O)NCCCN2CCOCC2)c1[N+](=O)[O-] ?
Output line: 4.49
